# TARGET_UNDER_TEST: Neu5Ac(a2-3)Gal(b1-4)[Fuc(a1-3)]GlcNAc(b1-3)GalNAc
# PROTOCOL_DETAILS: glycan array binding signal (z-score within array); higher = stronger binding
# MEASUREMENT_PARAMETERS: glycan notation: IUPAC condensed, linker removed
About 410 targets per protein were measured; listed, in parts, are those with the strongest signals and a random draw of the rest.
TEST_READOUT: glycan array binding signal (z-score)

LlpB (Pseudomonas fluorescens) (protein) MGSSHHHHHHSSGLVPRGSHMASSGFRIILFNSANNGTAILPPRNCLVAGQYLESPSKRYKLILEADGNLRLYDNGVPIWVADSSVPYTYVDNRPNTNLVTCFYMQGSAFLVDRVGSRTWATIGDWIDGAADRAYLQVQDDGNVVVVDGVPRWARFGFTPAALPNRGVFYPDHGTGPLPSFPVWSWTF; 0.993
Drgal1 (Danio rerio) (protein) MAGVLIQNMSFKVGQTLTITGVPKPDSTNFAINIGHSPEDIALHMNPRFDAHGDQCTIVCNSFQSGSWCEEHRDDNFPFIQDKEFQIKITFTNEEFLVTLPDGSEIHFPNRQGSEKYKYMYFEGEVRIQGVEIK; 5.78
Clrb (Mus musculus) (protein) ITGATKTEQIPVNKTYAACPQNWIGVENKCFYFSEYPSNWTFAQAFCMAQEAQLARFDNQDELNFLMRYKANFDSWIGLHRESSEHPWKWTDNTEYNNTIPIRGEERFAYLNNNGISSTRIYSLRMWICSKLNSYSLHCQTPFFPSGTKHHHHHHHHG; -0.205
